system: FXR:RXRa (NR concentration 270 nM, RXRa partner concentration 90 nM); test: PBM binding z-score (relative to random genomic background probes); higher = stronger binding; sequences stand for … in GC…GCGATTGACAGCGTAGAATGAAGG

entry.sequence	PBM binding z-score
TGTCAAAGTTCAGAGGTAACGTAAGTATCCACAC	4.53
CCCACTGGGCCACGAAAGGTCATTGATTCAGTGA	3.78
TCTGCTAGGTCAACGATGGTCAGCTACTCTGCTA	3.16
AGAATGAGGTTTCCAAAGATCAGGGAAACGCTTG	-0.506
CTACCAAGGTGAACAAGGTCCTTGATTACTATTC	0.682
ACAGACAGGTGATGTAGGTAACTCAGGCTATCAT	-0.0766
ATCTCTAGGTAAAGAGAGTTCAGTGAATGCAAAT	0.502
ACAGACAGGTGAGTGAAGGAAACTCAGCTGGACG	-0.54
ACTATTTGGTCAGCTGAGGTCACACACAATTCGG	3.54
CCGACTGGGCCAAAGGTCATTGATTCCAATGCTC	4.37
ACCGACAGGTGATGAAGGTAACTCAGGCTATCAT	-0.0834
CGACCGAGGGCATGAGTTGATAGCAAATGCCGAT	0.304

Entry source: the supplement of paper PMC6555819
